Measurement target: UniProt:Q08828
Protocol summary: Ability to activate the conversion of [32P] ATP to [32P]-cyclic AMP mediated by adenylate cyclase 1
Assay type: functional
Measurement kind: EC50

{"Smiles notation": "C=C[C@@]1(C)CC(=O)[C@]2(O)[C@@]3(C)[C@@H](O)CCC(C)(C)[C@@H]3[C@H](O)[C@H](OC(=O)NCCO)[C@@]2(C)O1", "Measurement target": "UniProt:Q08828", "EC50": "< 2 µM"}
{"Smiles notation": "C=C[C@@]1(C)CC(=O)[C@]2(O)[C@@]3(C)[C@@H](O)CCC(C)(C)[C@@H]3[C@H](O)[C@H](OC(=O)NCCc3ccccn3)[C@@]2(C)O1", "Measurement target": "UniProt:Q08828", "EC50": "< 2 µM"}

The reported EC50 of the compound `C=C[C@@]1(C)CC(=O)[C@]2(O)[C@@]3(C)[C@@H](O)CCC(C)(C)[C@@H]3[C@H](OC(=O)NCCO)[C@H](O)[C@@]2(C)O1` was > 2 µM

====

Measurement target: UniProt:Q08828
Protocol summary: Inhibition of [125 I]6-IHPP-forskolin binding to adenylate cyclase 1
pIC50: −log10 of the molar value.
Measurement kind: pIC50

The reported pIC50 of the compound `C=C[C@@]1(C)CC(=O)[C@]2(O)[C@@]3(C)[C@@H](O)CCC(C)(C)[C@@H]3[C@H](OC(=O)NCCC(=O)OCC)[C@H](OC(C)=O)[C@@]2(C)O1` was > 6.82

====

Measurement target: Adenylate cyclase type 1 (Homo sapiens)
Sequence (Q08828 whole entry): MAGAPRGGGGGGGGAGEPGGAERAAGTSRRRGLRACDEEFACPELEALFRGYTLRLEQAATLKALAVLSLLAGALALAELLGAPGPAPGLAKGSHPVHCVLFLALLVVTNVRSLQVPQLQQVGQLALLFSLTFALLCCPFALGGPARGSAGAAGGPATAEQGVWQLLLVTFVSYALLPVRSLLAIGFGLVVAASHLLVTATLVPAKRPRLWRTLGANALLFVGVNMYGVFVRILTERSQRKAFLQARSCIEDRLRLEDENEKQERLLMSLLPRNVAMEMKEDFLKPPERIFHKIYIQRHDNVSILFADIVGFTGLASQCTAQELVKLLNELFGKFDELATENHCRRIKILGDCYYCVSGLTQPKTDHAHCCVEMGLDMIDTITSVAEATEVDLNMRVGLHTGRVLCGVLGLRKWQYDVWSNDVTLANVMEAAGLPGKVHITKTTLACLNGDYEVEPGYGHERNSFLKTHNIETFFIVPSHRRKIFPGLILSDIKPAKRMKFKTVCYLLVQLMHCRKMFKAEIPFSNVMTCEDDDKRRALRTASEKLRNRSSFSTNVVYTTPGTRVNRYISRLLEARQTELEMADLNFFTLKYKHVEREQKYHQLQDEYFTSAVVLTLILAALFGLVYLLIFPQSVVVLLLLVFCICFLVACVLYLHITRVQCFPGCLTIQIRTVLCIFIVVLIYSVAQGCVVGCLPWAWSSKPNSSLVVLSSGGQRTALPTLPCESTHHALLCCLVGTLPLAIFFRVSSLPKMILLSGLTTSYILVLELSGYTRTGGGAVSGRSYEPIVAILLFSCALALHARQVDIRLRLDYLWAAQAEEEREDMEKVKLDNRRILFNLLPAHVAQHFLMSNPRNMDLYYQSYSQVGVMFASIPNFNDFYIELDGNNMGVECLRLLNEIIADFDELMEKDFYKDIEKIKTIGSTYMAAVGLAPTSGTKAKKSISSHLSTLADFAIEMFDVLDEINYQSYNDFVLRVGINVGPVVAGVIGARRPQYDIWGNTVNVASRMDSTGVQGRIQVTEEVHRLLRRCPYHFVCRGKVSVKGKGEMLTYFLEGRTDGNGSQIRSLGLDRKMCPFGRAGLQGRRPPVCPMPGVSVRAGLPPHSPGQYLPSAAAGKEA
Protocol summary: Ability to activate the conversion of [32P] ATP to [32P]-cyclic AMP mediated by adenylate cyclase 1
Format: functional
pEC50: −log10 of the molar value.
Measurement kind: pEC50

Example entries begin here.
{"Smiles notation": "C=C[C@@]1(C)CC(=O)[C@]2(O)[C@@]3(C)[C@@H](O)CCC(C)(C)[C@@H]3[C@H](OC(=O)NCCN)[C@H](OC(C)=O)[C@@]2(C)O1", "pEC50": "> 5.70"}
{"Smiles notation": "C=C[C@@]1(C)CC(=O)[C@]2(O)[C@@]3(C)[C@@H](O)CCC(C)(C)[C@@H]3[C@H](O)[C@H](OC(=O)NCCc3ccc(N)cc3)[C@@]2(C)O1", "pEC50": "> 5.70"}

The reported pEC50 of the compound `C=C[C@@]1(C)CC(=O)[C@]2(O)[C@@]3(C)[C@@H](O)CCC(C)(C)[C@@H]3[C@H](OC(=O)NCC3CCCCC3)[C@H](OC(C)=O)[C@@]2(C)O1` was < 5.70

The reported pEC50 of the compound `C=C[C@@]1(C)CC(=O)[C@]2(O)[C@@]3(C)[C@@H](O)CCC(C)(C)[C@@H]3[C@H](O)[C@H](OC(=O)NCCC(=O)OCC)[C@@]2(C)O1` was < 5.70

The reported pEC50 of the compound `C=C[C@@]1(C)CC(=O)[C@]2(O)[C@@]3(C)[C@@H](O)CCC(C)(C)[C@@H]3[C@H](OC(=O)NCCc3ccccn3)[C@H](OC(C)=O)[C@@]2(C)O1` was > 5.70

The reported pEC50 of the compound `C=C[C@@]1(C)CC(=O)[C@]2(O)[C@@]3(C)[C@@H](O)CCC(C)(C)[C@@H]3[C@H](OC(=O)NCCN3CCCCC3)[C@H](O)[C@@]2(C)O1` was > 5.70

The reported pEC50 of the compound `C=C[C@@]1(C)CC(=O)[C@]2(O)[C@@]3(C)[C@@H](O)CCC(C)(C)[C@@H]3[C@H](O)[C@H](OC(=O)NCCN(C)C)[C@@]2(C)O1` was < 5.70
